# procedure_details: NCI Yeast Anticancer Drug Screen. Data for the rad50 strain (AID 155)
# condition_info: S. cerevisiae rad50 strain growth inhibition; at 50.0 µM (retest, dose inferred, filed as 5.0)
Compounds without any hit were thinned out: in the full panel of roughly 79,000, 15% have a hit. The source made the active and inactive calls. No stated cut-off is given here; in the data, active means growth inhibition above about 70%; inactive means the rest.
Classes used: active, inactive

C=CC[C@]1(C(C)C(OC(C)=O)c2ccc3c(c2)OCO3)C[C@@H](OC)C=CC1=O (stereo not given in full): active
N=C(N)SC1c2ccccc2-c2cc([N+](=O)[O-])ccc21 (stereo not given): active
COC(=O)c1cccc2cccc(C(=O)Nc3ccc(Cl)cc3)c12: active
C=CC(=O)NC(=O)Nc1ccc(Cl)cc1: active
CCOC(=O)C(Br)C(Br)c1cccc([N+](=O)[O-])c1 (stereo not given): active
CCCCCCCCC(C)c1ccccc1O (stereo not given): active
CC(=Nc1ccc(N(C)C)cc1)c1ccccc1: inactive
COC(=O)c1[nH]c(=O)c(C#N)c(C(=O)OC)c1C(=O)c1ccc(Cl)c(Cl)c1: active
Cc1c(C)n(-c2ccccc2)c2nc(S(C)(=O)=O)nc(S(C)(=O)=O)c12: active
CC1=NN(c2nc(N)nc(C(C)Sc3cc(Cl)c(C)cc3S(N)(=O)=O)n2)C(C)(C)C1 (stereo not given): inactive
CC(=O)n1nc2c(c1CC(C)C)C(=O)C(Nc1ccccc1)=CC2=O: active
N#CC1C(=O)SC2c3ccccc3C(=O)c3ccccc3C12 (stereo not given): inactive
Cn1cc(NC(=O)c2cc(NC(=O)CCCCCCCCC(=O)Nc3cc(C(=O)Nc4cc(C(=O)NCCC(N)N)n(C)c4)n(C)c3)cn2C)cc1C(=O)NCCC(=N)N: active
O=C(CNC(=O)C(CSCc1ccccc1)NC(=O)OCc1ccccc1)Oc1c(Cl)c(Cl)c(Cl)c(Cl)c1Cl (stereo not given): inactive
COC1(OC)CNC(C(=O)O)C1 (stereo not given): inactive
COC(=O)[C@@H]1c2cc3c(c(O)c2[C@@H](OC2OC(C)C(OC)C(C)(OC)C2OC)C[C@]1(C)O)C(=O)c1c(O)cc2c(c1C3=O)O[C@H]1O[C@]2(C)[C@H](O)[C@@H](N(C)C)[C@@H]1O (stereo not given in full): active
Cc1ccc([PH+](CC[PH+](c2ccccc2)c2ccccc2)c2ccc(C)cc2)cc1.Cc1ccc([PH+](CC[PH+](c2ccccc2)c2ccccc2)c2ccc(C)cc2)cc1.[Pt]: active
C[n+]1c(/C=C/c2ccc([N+](=O)[O-])cc2)ccc2ccccc21: active
Cc1cc(NS(=O)(=O)c2ccc(Nc3c4ccccc4nc4c(C(=O)NC(CO)(CO)CO)cccc34)cc2)no1: inactive
Oc1ccc(CNCc2ccccc2)c2cccnc12: active
Cc1c2ccccc2c(CSC(=N)N)c2ccccc12: active
Cc1ccc(C)c(NC(=O)CCC(=O)C(C#N)c2cccc3ccccc23)c1 (stereo not given): inactive
Cc1ccc(S(=O)(=O)Nc2ccccc2Cl)cc1: active
CCCCCCCCCCCCCCCCC1CCc2ccccc21 (stereo not given): inactive
O=S=C(c1ccccc1)N(Cc1ccccc1)Cc1ccccc1: active
CCOc1ccc2c(c1)nc1ccccc1[n+]2CC: inactive
CCCCCC(CO)C(O)(C(F)(F)F)C(F)(F)F (stereo not given): inactive
CC(C)OC(=O)c1cc([N+](=O)[O-])cc([N+](=O)[O-])c1Sc1ncnc2nc[nH]c12: inactive
CCN(CC)CCNc1c(C)ccc2cccnc12: inactive
O=c1cc(-c2ccccc2)[nH]c2ccc(N3CCCC3)cc12: inactive
CCN(CC)CCOc1ccc(-c2nc3cc(Cl)ccc3s2)cc1: active
O=C(N/N=C/c1ccccc1)c1ccc([N+](=O)[O-])cc1: inactive
CC1SC(=S)N(c2ccc(Cl)cc2)C1=O (stereo not given): inactive
CN(C)c1nc(NNS(=O)(=O)c2ccc(N)cc2)nc(N(C)C)n1: inactive
CC(=O)O[C@]1(C(C)=O)CC[C@H]2[C@@H]3C[C@H](C)C4=CC(=O)NCC[C@]4(C)[C@H]3CC[C@@]21C: active
CCCCCCCCCCCCCCCCNc1ccn(C2CC(OP(=O)(O)OCC3OC(n4cc(CC)c(=O)[nH]c4=O)CC3O)C(CO)O2)c(=O)n1 (stereo not given): active
O=C1c2ccccc2C(c2ccccc2)(c2ccccc2)N1c1ccccc1: active
C[C@]12CCC3[C@@H](CC[C@@H]4c5nonc5CC[C@]34C)C1CCC(=O)N2 (stereo not given in full): inactive
CCCCCc1ccc2cc(C(=O)O)[nH]c2c1: inactive
CC1OC(OC2C(OC3CCC4(C)C(CCC5(C)C4CC=C4C6CC(C)(C)CCC6(CO)C(O)CC45C)C3(C)C)OC(C(=O)O)C(OC3OC(COC4OC(CO)C(O)C(O)C4O)C(O)C(O)C3O)C2O)C(O)C(O)C1O (stereo not given): active
